target: SMARCA2-HiBiT HeLa cells (protein which is expressed from the SMARCA2 gene) (Homo sapiens, UniProt P51531); construct: protein which is expressed from the SMARCA2 and SMARCA4 genes; host or cells: HeLa (SMARCA2-HiBiT engineered line); assay: SMARCA2 degradation assay (HiBiT-fusion HeLa cell line, 24 h, luminescence); assay type: cell-based; settings: @ 1 μM
Sequence (P51531 whole entry, the tested form may be a part): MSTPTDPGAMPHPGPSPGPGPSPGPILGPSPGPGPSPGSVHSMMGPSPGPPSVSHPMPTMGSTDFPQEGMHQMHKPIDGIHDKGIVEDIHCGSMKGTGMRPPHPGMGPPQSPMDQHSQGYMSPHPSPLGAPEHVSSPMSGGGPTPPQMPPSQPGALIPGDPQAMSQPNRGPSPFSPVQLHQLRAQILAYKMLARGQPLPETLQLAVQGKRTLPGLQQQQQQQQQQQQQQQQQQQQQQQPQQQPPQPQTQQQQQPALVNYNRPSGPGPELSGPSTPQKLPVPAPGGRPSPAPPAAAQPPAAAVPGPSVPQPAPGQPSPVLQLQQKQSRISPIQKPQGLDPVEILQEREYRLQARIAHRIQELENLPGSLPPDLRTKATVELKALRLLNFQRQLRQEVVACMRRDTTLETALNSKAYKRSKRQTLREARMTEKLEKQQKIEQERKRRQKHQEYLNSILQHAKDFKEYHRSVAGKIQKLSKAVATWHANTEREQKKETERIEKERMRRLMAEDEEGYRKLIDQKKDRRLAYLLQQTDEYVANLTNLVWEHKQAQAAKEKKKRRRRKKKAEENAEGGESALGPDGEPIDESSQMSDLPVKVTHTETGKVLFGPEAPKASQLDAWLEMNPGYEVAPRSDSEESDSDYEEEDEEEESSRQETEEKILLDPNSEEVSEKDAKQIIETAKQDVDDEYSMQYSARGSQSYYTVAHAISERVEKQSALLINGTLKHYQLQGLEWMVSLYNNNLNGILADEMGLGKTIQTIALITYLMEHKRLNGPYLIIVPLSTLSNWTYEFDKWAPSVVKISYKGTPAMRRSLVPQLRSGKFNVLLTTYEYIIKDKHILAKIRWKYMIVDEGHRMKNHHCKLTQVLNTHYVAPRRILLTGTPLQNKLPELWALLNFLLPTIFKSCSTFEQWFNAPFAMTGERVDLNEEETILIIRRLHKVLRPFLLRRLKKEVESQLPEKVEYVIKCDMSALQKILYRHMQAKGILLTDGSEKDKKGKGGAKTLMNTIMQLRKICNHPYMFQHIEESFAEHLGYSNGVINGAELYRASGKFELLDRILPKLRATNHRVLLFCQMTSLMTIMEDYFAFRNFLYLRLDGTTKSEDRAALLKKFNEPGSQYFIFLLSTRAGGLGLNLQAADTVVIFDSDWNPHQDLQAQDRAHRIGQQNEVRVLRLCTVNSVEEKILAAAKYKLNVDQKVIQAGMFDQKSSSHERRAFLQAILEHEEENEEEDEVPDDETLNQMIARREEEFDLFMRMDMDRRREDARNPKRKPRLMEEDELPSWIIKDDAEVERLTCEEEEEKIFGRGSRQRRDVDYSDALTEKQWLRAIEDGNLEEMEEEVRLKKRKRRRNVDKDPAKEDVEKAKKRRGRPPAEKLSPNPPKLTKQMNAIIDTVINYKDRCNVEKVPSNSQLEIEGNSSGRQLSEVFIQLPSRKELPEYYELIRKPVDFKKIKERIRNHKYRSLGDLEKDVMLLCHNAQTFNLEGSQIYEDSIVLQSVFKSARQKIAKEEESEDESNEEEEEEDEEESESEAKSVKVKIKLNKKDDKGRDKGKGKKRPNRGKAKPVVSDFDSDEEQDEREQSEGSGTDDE

[
  {
    "Compound": "C[C@@H]1CCN(c2cc(-c3ccccc3O)nnc2N)CCN1c1ccnc(C#CC2CN(CC(F)F)C2)n1",
    "SMARCA2 % Degradation @ 1 μM": "+++ (+++=>70%)"
  },
  {
    "Compound": "Nc1nnc(-c2ccccc2O)cc1N1CC2CCC(C1)N2c1ccnc(C#CCn2cccn2)n1",
    "SMARCA2 % Degradation @ 1 μM": "++ (++=30-70%)"
  },
  {
    "Compound": "Nc1nnc(-c2ccccc2O)cc1N1CCCN(c2ccnc(C#CCn3ccc(-c4ccccn4)n3)n2)CC1",
    "SMARCA2 % Degradation @ 1 μM": "+++ (+++=>70%)"
  },
  {
    "Compound": "C[C@@H]1CCN(c2cc(-c3ccccc3O)nnc2N)CCN1c1ccnc(C#CCN2CCC(C)(F)C2)n1 (some centres unmarked)",
    "SMARCA2 % Degradation @ 1 μM": "++ (++=30-70%)"
  },
  {
    "Compound": "CC(C)(O)C#Cc1nccc(N2CCCN(c3cc(-c4ccccc4O)nnc3N)CC2)n1",
    "SMARCA2 % Degradation @ 1 μM": "++ (++=30-70%)"
  },
  {
    "Compound": "C[C@@H]1CCN(c2cc(-c3ccccc3O)nnc2N)CCN1c1nc(C#CCn2ccnc2)ncc1F",
    "SMARCA2 % Degradation @ 1 μM": "++ (++=30-70%)"
  },
  {
    "Compound": "Cn1nc(C(=O)NCC#Cc2nccc(N3CCN(c4cc(-c5ccccc5O)nnc4N)CC3)n2)cc1C1CC1",
    "SMARCA2 % Degradation @ 1 μM": "++ (++=30-70%)"
  },
  {
    "Compound": "COCc1cc(N2CCCN(c3cc(-c4ccccc4O)nnc3N)CC2)nc(C#CCNC(=O)c2cc3ncccn3n2)n1",
    "SMARCA2 % Degradation @ 1 μM": "++ (++=30-70%)"
  }
]
